Sourced from patent US20190233542A1

Measured pIC50, listed per entry for reference.
target: T1, human PCSK9-mFc-biotin (human, UniProt Q8NBP7 31-692, biotin label (site not stated)); assay: competitive ELISA, blocking of PCSK9 binding to LDL-R
T1 construct: not shown: murine Fc (mFc) fused at the C-terminus
pIC50: −log10 of the molar value.

| binder | pIC50 |
| --- | --- |
| 40409 (hIgG4) (antibody, V domains shown, human IgG4 constant region) VH: QLNLQQSGPGLVNPSQTLSLTCAISGGSVSSNSAAWNWIRQSPSRGLEWLGRIYSRSKWYHDYAVSVKGRITINPDTSKNQFFLQLNSVTPEDTAVYYCARDWETIIWGDDGPNYYNYGLDVWGQGTTVTVSS VL: DIQMTQSPSSLSASVGDRVTITCRASQGIRNDLGWYQQKPGKAPKRLIYGASSLQSGVPSRFSGSGSGTEFTLTISSLQPEDFATYYCLQHNNYLWTFGQGTKVEIK | 8.76 |
| 19.3.8-uAb1-IgG4L (antibody, V domains shown, human IgG4 constant region, lambda light chain) VH: QVQLVQSGAEVKKPGASVKVSCKASGYTFTGYYINWVRQAPGQGLEWMGRINPNSGGTNYAQKFQGRVTMTRDTSINTAYMELSRLRSDDTAVYFCASWEGTVTTWDFYYYYGMDVWGQGTTVTVSS VL: QSALTQPASVSGSPGQSITISCTGTSSDVDTYNYVSWYQHHPGKAPKLIIFDVSNRPSGVSNRFSGSKSGNTASLTISGLQAEDEADYYCSSYTSSSTLVVFGGGTKLTVL | 8.70 |
| 17.72.3-uAb2-IgG4K (antibody, V domains shown, human IgG4 constant region, kappa light chain) VH: QVQLQESGPGLVKPSGTLSLTCAVSGGSIRSYNWWSWVRQPPGEGLEWIGEIHHSGTTNYNPSLKSRVTISVDKSKNQFSLKLSSVTAADTAVYYCARDYSGSYFDYWGQGTLVTVSS VL: EVVLTQSPATLSLSPGERATLSCRTSQSLSSYVAWSQQKPGQAPRLLIYDASKRATGVPARFSGSGSGTDFTLTISNLEPEDFAVYYCHQRGNWMSSFGQGTKLEIK | 8.78 |
| 15.14.2-uAb-IgG4L (antibody, V domains shown, human IgG4 constant region, lambda light chain) VH: EVQMLESGGGLVQPGGSLRLSCAVSGFTFSRFAMSWVRQAPGKGLDWVSSISDNAGRTYFADSVKGRFTISRDNSKNTLYLQMNSLRADDTAVYYCAKLSNWGPYGMDVWGQGTTVTVSS VL: QSALTQPPSASGSPGQSVTISCTGTSSDVGYYNYVSWYQQHPGEAPKLMIYEVNKRPSGVPDRFSGSKSGSTASLTVSGLQAVDEADYYCSSYAGSKNFVVFGGGTKLTVL | 8.95 |
